Data origin, for the record: patent US20240335462A1

# assay: Pharmacokinetic testing in mice
# Format: in vivo, male CD-1 mice
# condition.notes: male, CD-1, plasma; mouse, IV 3 mg/kg; read-out: Half-life T1/2 (converted)
The compounds listed here are annotated with their half-life.
The reply should read as a number followed by its unit.

structure_as_smiles=CNC(=O)c1cnc(NC(=O)C2CC2)cc1Nc1cccc(-c2ncc(S(=O)(=O)C(C)C)cn2)c1OC recorded_value="1.1 h"

half-life recorded for this compound, CNC(=O)c1nnc(NC(=O)C2CC2)cc1Nc1cccc(-c2ccc(P(=O)(C3CC3)C3CC3)cn2)c1OC , is 2.9 h

====

# target.entity: Ba/F3-FL-TYK2-E957D cells (Homo sapiens, UniProt P29597, E957D, cells depend on it)
# Sequence (P29597 whole entry E957D): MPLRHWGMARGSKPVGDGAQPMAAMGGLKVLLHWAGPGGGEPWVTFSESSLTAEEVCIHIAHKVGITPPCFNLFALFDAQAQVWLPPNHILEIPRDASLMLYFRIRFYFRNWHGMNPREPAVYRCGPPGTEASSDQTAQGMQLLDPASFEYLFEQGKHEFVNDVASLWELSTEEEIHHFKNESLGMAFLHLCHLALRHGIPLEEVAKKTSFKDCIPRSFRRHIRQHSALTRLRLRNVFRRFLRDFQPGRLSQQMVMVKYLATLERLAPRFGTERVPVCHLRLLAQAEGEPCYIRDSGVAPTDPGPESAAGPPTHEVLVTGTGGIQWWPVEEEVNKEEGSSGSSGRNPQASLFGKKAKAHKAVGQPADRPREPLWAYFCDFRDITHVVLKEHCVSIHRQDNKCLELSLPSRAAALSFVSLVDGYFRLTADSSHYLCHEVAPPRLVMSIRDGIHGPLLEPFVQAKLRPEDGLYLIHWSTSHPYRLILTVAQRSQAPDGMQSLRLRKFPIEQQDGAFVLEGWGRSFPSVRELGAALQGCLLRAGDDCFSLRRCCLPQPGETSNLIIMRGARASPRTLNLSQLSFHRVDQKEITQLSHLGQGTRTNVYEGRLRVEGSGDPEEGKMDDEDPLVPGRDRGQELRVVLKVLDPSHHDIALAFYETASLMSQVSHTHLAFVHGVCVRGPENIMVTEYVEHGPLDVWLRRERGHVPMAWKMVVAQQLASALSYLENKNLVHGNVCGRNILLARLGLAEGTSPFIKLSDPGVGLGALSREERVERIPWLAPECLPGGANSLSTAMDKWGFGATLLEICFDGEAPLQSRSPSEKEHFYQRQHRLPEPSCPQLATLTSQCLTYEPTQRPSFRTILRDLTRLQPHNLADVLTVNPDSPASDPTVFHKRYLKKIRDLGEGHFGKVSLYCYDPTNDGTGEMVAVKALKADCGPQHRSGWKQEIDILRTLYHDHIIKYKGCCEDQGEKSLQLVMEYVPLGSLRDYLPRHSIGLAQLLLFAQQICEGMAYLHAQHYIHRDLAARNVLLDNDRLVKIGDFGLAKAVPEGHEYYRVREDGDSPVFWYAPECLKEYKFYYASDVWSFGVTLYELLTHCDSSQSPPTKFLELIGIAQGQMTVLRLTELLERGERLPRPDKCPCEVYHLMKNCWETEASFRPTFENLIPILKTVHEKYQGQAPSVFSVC
# assay: Proliferation of Ba/F3-FL-TYK2-E957D cells (CellTiter-Glo)
# Type: cell-based, mouse
# condition.notes: 72 hours, read-out: Half maximal inhibitory concentration IC50 for cells Ba/F3-FL-TYK2-E957D
Structures can show the parent of a compound that is named as a salt.
The compounds listed here are annotated with their log10 of GI50.
Parameter value (number): base-10 log of GI50 in nM.

compound="[2H]C([2H])([2H])NC(=O)c1cnc(NC(=O)C2CC2)cc1Nc1cccc(-c2ncc([S+](C)[O-])cn2)c1OC (centres unmarked) [Hydrochloride of WX-002]" recorded_value=1.28
compound=CNC(=O)c1cnc(NC(=O)C2CC2)cc1Nc1cccc(-c2ccc(S(=O)(=O)C(C)C)nc2)c1OC recorded_value=0.67
compound="COc1c(Nc2cc(NC(=O)C3CC3)ncc2C(N)=O)cccc1-c1ccc(S(=O)(=O)C(C)C)cn1 [Trifluoroacetate of WX-034]" recorded_value=-1.00
compound="CNC(=O)c1nnc(NC(=O)C2CC2)cc1Nc1cccc(-c2ccc(S(=N)(=O)C(C)C)cn2)c1OC (single isomer, unassigned) [WX-012B]" recorded_value=0.38
compound="COc1c(Nc2cc(NC(=O)C3CC3)nnc2C(N)=O)cccc1-c1ncc(S(=N)(=O)C(C)C)cn1 (centres unmarked) [Hydrochloride of WX-031]" recorded_value=0.41

Case CNC(=O)c1nnc(NC(=O)C2CC2)cc1Nc1cccc(-c2ccc(P(=O)(C3CC3)C3CC3)cn2)c1OC , Ba/F3-FL-TYK2-E957D cells (Homo sapiens, UniProt P29597, E957D, cells depend on it), log10 of GI50 recorded as 0.40

Case CCP(=O)(CC)c1ccc(-c2cccc(Nc3cc(NC(=O)C4CC4)ncc3C(=O)NC)c2OC)cc1 , Ba/F3-FL-TYK2-E957D cells (Homo sapiens, UniProt P29597, E957D, cells depend on it), log10 of GI50 recorded as 1.10

Case CNC(=O)c1nnc(NC(=O)C2CC2)cc1Nc1cccc(-c2ccc(S(=N)(=O)C(C)C)nn2)c1OC (single isomer, unassigned) [WX-036B] , Ba/F3-FL-TYK2-E957D cells (Homo sapiens, UniProt P29597, E957D, cells depend on it), log10 of GI50 recorded as 1.24

Case CNC(=O)c1cnc(NC(=O)C2CC2)cc1Nc1cccc(-c2ccc(S(=O)(=O)C(C)C)nn2)c1OC , Ba/F3-FL-TYK2-E957D cells (Homo sapiens, UniProt P29597, E957D, cells depend on it), log10 of GI50 recorded as 0.48

Case CNC(=O)c1nnc(NC(=O)C2CC2)cc1Nc1cccc(-c2ccc(S(=N)(=O)C(C)C)nc2)c1OC (single isomer, unassigned) [WX-037A] , Ba/F3-FL-TYK2-E957D cells (Homo sapiens, UniProt P29597, E957D, cells depend on it), log10 of GI50 recorded as 1.18

Case CN=S(=O)(c1cnc(-c2cccc(Nc3cc(NC(=O)C4CC4)nnc3C(=O)NC)c2OC)nc1)C(C)C (centres unmarked) , Ba/F3-FL-TYK2-E957D cells (Homo sapiens, UniProt P29597, E957D, cells depend on it), log10 of GI50 recorded as 1.08
